Record form. Attribute: pKd. Fill in for each entry.
B1: NELF-E aptamer (parent)
chain: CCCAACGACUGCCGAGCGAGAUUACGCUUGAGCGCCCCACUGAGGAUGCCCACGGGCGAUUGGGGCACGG

Variants of: B1
Test: HiTS-RAP
Conditions: with NELF-E (Drosophila)
Keep it numeric: pKd is minus log10 of the concentration in mol/L.

Please give the measured pKd for this variant: CCCAACGAGUGCCGAGCGAGAUUACGCUUGAGCGCCUCACUGAGGAUGCCCACGGGCGAUUGGGGCACGG [C9G C37U]
7.79

Would you kindly share the measured pKd for CCCAACGACUGCCGAGCGAGAUUACGCUUGAGCGCCGCACUGAGGAUGCCCACGGGCGAUUGGGGCACGG [C37G] ?
8.23

For the variant shown here, CCCAACGACUGCCGAGCGAGAGUACGCUUGAGCGCCCCACUGAGGAUUCCCACGGGCGAUUGGGGCACGG [U22G G48U] , give the reported pKd.
8.01

Report pKd for CCCCACGACUGCCGAGCGAGAUGACGCUUGAGCGCCCCACUGAGGAUGCCCACGGGCGAUUGGGGCACGG [A4C U23G] please.
8.14

Value lookup for pKd; key = CCCAACGACUGCCGAGCGAGAUGACGCUUGAGCGCCCCACUGAGGAUGCCCACGGGCGAUUGGUGCACGG [U23G G64U]
8.21

Reported pKd for CCCAACGGCUGCCGAGCGAGAUUACGCUUGAGCGCCCCACUGAGGAUGCCCACGGGCGAUUGUGGCACGG [A8G G63U] : what is it?
7.96

GET /values?readout=pKd&item= CCCAACGACUGCCGAACGAGAGUACGCUUGAGCGCCCCACUGAGGAUGCCCACGGGCGAUUGGGGCACGG [G16A U22G]
8.21

Name the recorded pKd for CCCAACGACUGCCGAUCGAGAUUACGCUUGAGCGCCCCACUGAGGAUGCCCACGGGCGAUUGGAGCACGG [G16U G64A] .
8.12

Query: pKd; subject: CCCAACGACGGCCGAGCGAGAUUACGCUUGAGCGACCCACUGAGGAUGCCCACGGGCGAUUGGGGCACGG [U10G C35A]
8.14

# lookup: pKd of CCCAACGACUUCCGAGCGAGAUUACGCUUGAGCGCCCCACUGAGGAUGCCCACGAGCGAUUGGGGCACGG [G11U G55A]
8.06

Please report the recorded pKd for CCCAACGACUGCCGAGCGAGAUGACGCUUGAGCGCCCCACUGAGGAUGCCCACGGGCGAUUGGGGCUCGG [U23G A67U] .
8.12

Requested field: pKd. Item: CCCAACGACGGCCGAGCGAGAUUACGCUUGAGCGCCCCACUGAGGAUGGCCACGGGCGAUUGGGGCACGG [U10G C49G]
8.15

Bench note: what pKd did CCCAACGACUGCCGAGCGAGAUUACGCCUGAGCGCCCCACUGAGGAUGCCCACGGGCGAUUGGGGCACGG [U28C] show?
8.08

Recorded pKd for CCCAUCGACUGCCGAGCGAGAUUACGCUUGAGCGCCCCACGGAGGAUGCCCACGGGCGAUUGGGGCACGG [A5U U41G] , please?
8.22

So what does the record say about pKd for CCCAACGACUGCCGAGCGAGAUUACGCUUGAGCGCCCCACGGAGGAUGCCCACGGGCGAUUGGAGCACGG [U41G G64A] ?
8.20

Any idea what pKd was measured for CCCAACGACUGCCGAGCGAGAUUACGCUUGAGCGCCCCGCUGAGGAUGCCCACGGGUGAUUGGGGCACGG [A39G C57U] ?
8.01

Given the entry CCCAGCGACUGCCGAGCGAGAUUACGCUUGAGCGCCUCACUGAGGAUGCCCACGGGCGAUUGGGGCACGG [A5G C37U] , report its measured pKd.
7.98

For the variant CCCAACGACUGCCGAGCGAAAUGACGCUUGAGCGCCCCACUGAGGAUGCCCACGGGCGAUUGGGGCACGG [G20A U23G] , what pKd is on record?
8.23

Return reported pKd; argument: CCCAACGACUGCCGAGCGAGAGUACGCUUGAGCGCCGCACUGAGGAUGCCCACGGGCGAUUGGGGCACGG [U22G C37G]
8.15

Recorded pKd for CCCAAAUACUGCCGAGCGAGAUUACGCUUGAGCGCCCCACUGAGGAUGCCCACGGGCGAUUGGGGCACGG [C6A G7U] , please?
8.18

Fill blank: measured pKd of the variant CCCAACGAGUGCCGAGCGAGAUUACGCUUGAGCGCCCCACUGAUGAUGCCCACGGGCGAUUGGGGCACGG [C9G G44U] is ____.
8.04

Record request: pKd value, item CCCAACGACGGCCGACCGAGAUUACGCUUGAGCGCCCCACUGAGGAUGCCCACGGGCGAUUGGGGCACGG [U10G G16C]
8.16

Look up pKd: CCCAACGACUGCCGAGCGAGAUUACGCCGGAGCGCCCCACUGAGGAUGCCCACGGGCGAUUGGGGCACGG [U28C U29G]
8.06

Quick one: pKd for CCCAACGACUGCCGAGCGAGAUUACGCUGGAGCGCCCCACUGAGGAUGCCCACAGGCGAUUGGGGCACGG [U29G G54A] ?
7.88

Which pKd value is on record for CCCAACGACUGCCUAGCAAGAUUACGCUUGAGCGCCCCACUGAGGAUGCCCACGGGCGAUUGGGGCACGG [G14U G18A] ?
8.20

Report pKd for CCCAACGGCUGCCAAGCGAGAUUACGCUUGAGCGCCCCACUGAGGAUGCCCACGGGCGAUUGGGGCACGG [A8G G14A] please.
8.21

Using the record for CCCAACGACUGCCGAGCGAGAUUACACUUGAGCGCCCCACUGAGGAUGCCCACGGGUGAUUGGGGCACGG [G26A C57U] , report its pKd.
8.21

Entry CCCAGCGACUGCCGAGCGAGAUUACGCUUGAGCGCCCCACUGAGGAUGCCCACGGGCGAUUGGGGCGCGG [A5G A67G] has what pKd?
8.17

Form field: reported pKd of CCCAACGACUGCCAAGCGAGAUGACGCUUGAGCGCCCCACUGAGGAUGCCCACGGGCGAUUGGGGCACGG [G14A U23G]
8.23

What value of pKd has been reported for the following variant? CCCAACGACUGCCGAGCGAGAUUACGCUUGAGCGCCCCACUGGUGAUGCCCACGGGCGAUUGGGGCACGG [A43G G44U]
8.22

Reported pKd for CCCAACGACGGCCGAGCGAGAUUACGCUUGAGCGCCCCACUGAGGAUGCCCACGGGCGAUUGGUGCACGG [U10G G64U] : what is it?
8.14

Item CCCAUCGACUGCCGAGCGAGAUUACGCUUGAGCGCCCCACUGAGGAUGCCCGCGGGCGAUUGGGGCACGG [A5U A52G] has what recorded pKd?
8.14

// lookup pKd for CCCAUCGACUGCCGAGCGAGAUUACGCUUGAGCGCCCCACUGAGGAUGCCCACAGGCGAUUGGGGCACGG [A5U G54A]
7.86

Look up pKd: CCCAACGUCUGCCGAGCGAGAUUACGCUUGAGCGCCCCACUGAGGAUGCCCACGGGCGAUUGGGGCUCGG [A8U A67U]
8.13

What value of pKd has been recorded for this entry: CCCAAUGACUGCCAAGCGAGAUUACGCUUGAGCGCCCCACUGAGGAUGCCCACGGGCGAUUGGGGCACGG [C6U G14A]
8.15

Any idea what pKd was measured for CCCGACGACUGCCGAGCGAGAUUACGCUUGAGCGCCCCACUGAUGAUGCCCACGGGCGAUUGGGGCACGG [A4G G44U] ?
8.12

For the variant shown here, CCCAACGACUGCCGAGCGAGAUUACGCUAGAGCGCCCCACUGAGGAUGCCCACGGGCGAUUGGGGCUCGG [U29A A67U] , give the reported pKd.
8.22

pKd for CCCAAUGACUGCCGAGUGAGAUUACGCUUGAGCGCCCCACUGAGGAUGCCCACGGGCGAUUGGGGCACGG [C6U C17U] ?
8.19

// pKd lookup, key: CCCAACGACUGCCGAACGAUAUUACGCUUGAGCGCCCCACUGAGGAUGCCCACGGGCGAUUGGGGCACGG [G16A G20U]
8.10

If you can, please state the reported pKd value of CCCAACGAGUGCCGAGCGAGAUUACGCUUGAGCGCCCCACUGAGGAUGCCCCCGGGCGAUUGGGGCACGG [C9G A52C] .
8.13

Give the measured pKd of CCCAACGACUGCCGAGCGAGAUUACGCUGGAGCGCCCCACUGAGGAUGCCCACGAGCGAUUGGGGCACGG [U29G G55A] .
8.11
